Sourced from paper PMC12040169

Experiment: in vitro
Details: human, hela cells, % viability
viability at 28.5 h, 10 µM values, listed per item
property-label: viability at 28.5 h, 10 µM (%)

> print(dat)
                                   compound              property.label  measured.number
1     COc1ccccc1NC(=O)CCCC(=O)O [CBK261323]  viability at 28.5 h, 10 µM              101
2  CC(C)(C)c1ccc(S(N)(=O)=O)cc1NC(=O)Nc1cccc(F)c1 [CBK093643]  viability at 28.5 h, 10 µM              100
3  OC1(c2cccnc2)CCCC2CN(Cc3c(F)cccc3F)CC21 (centres unmarked) [CBK284512]  viability at 28.5 h, 10 µM              114
4  O=C(CN(c1cc(C(F)(F)F)ccc1Cl)S(=O)(=O)c1ccccc1)NCc1cccnc1 [CBK264607]  viability at 28.5 h, 10 µM             94.4
5  Cc1cc(-c2nnc(SCCC(=O)Nc3ccccc3)o2)no1 [CBK268737]  viability at 28.5 h, 10 µM              104
6  O=c1cc(CN2CCC(Cc3ccccc3)CC2)[nH]c(=O)[nH]1 [CBK126388]  viability at 28.5 h, 10 µM              104
7  Cc1ccc(C(=O)NCCCNc2ccc(Cl)cc2[N+](=O)[O-])cc1 [CBK262334]  viability at 28.5 h, 10 µM              101
8  Cc1cc(C)n(CC(=O)NCC(c2cccs2)N2CCOCC2)n1 (centres unmarked) [CBK305620]  viability at 28.5 h, 10 µM              102

###

Assay: in vitro
Conditions: human, hela cells, % viability
property-label: viability at 28.5 h, 10 µM (%)

> print(dat)
                                    compound              property.label  measured.number
 1  Cc1cc(C)c(OCC(=O)Nc2cc(-c3nc4ncccc4o3)ccc2C)c(Cl)c1  viability at 28.5 h, 10 µM             92.7
 2  CCc1nc2ccc(C(=O)Nc3ccc(NC(C)=O)cc3)cn2c1N(CC)Cc1ccc(OC)c(OC)c1  viability at 28.5 h, 10 µM             97.8
 3      COc1ccnc(N2CCN(C(=O)CCc3ccsc3)CC2)n1  viability at 28.5 h, 10 µM             90.5
 4  CSc1ncc(Cl)c(C(=O)Nc2sc3c(c2C(=O)NCc2ccco2)CCCC3)n1  viability at 28.5 h, 10 µM             96.6
 5  Cc1ccc(OC(C)C(=O)NNC(=O)c2ccc([N+](=O)[O-])cc2)cc1 (centres unmarked)  viability at 28.5 h, 10 µM              104
 6  O=C(c1cccs1)N1CCC[C@@H]1Cn1c(=O)oc2ccccc21  viability at 28.5 h, 10 µM              102
 7  COc1cccc(C(=O)N2CCCC(c3cc4cnccc4[nH]3)C2)c1 (centres unmarked)  viability at 28.5 h, 10 µM              104
 8  COc1cccc(C(c2nnnn2C(C)(C)C)N2CCN(c3cccc(Cl)c3)CC2)c1 (centres unmarked)  viability at 28.5 h, 10 µM              112
 9  Cc1cccc(CCN2CCC3(CC2)NCCc2c3[nH]c3ccc(Br)cc23)c1  viability at 28.5 h, 10 µM             83.3
10  COc1cc(/C=C2\SC(=N)NC2=O)cc(Cl)c1OS(=O)(=O)c1ccc(NC(C)=O)cc1  viability at 28.5 h, 10 µM              107
11        Cn1cc(C(=O)O)c(NC(=O)c2ccccc2Cl)n1  viability at 28.5 h, 10 µM             95.8

###

Assay: in vitro
Details: human, hela cells, % viability
viability at 28.5 h, 10 µM values, listed per item
property-label: viability at 28.5 h, 10 µM (%)

> print(dat)
                                    compound  measure.unit  measured.number
 1  CC1CCc2c(sc3ncnc(NCCc4nc5ccccc5[nH]4)c23)C1 (centres unmarked)             %             91.6
 2                  CCCCc1nccn1CCn1ccnc1CCCC             %             88.7
 3  Cc1noc(-c2cn(C)nc2C2CCCCN2CC2CC2)c1C (centres unmarked)             %             88.1
 4  Cc1cc(C2CCCCCN2Cc2cc(Cl)ccc2O)on1 (centres unmarked)             %             89.2
 5  COc1ccc(S(=O)(=O)n2ccn(C(c3ccccc3)c3ccccc3)c2=O)cc1OC             %             89.1
 6          COCCCN(Cc1ccc(F)c(F)c1)Cc1ccccn1             %             90.7
 7  CCc1nc2ccc(C(=O)NC3CCN(Cc4ccccc4)CC3)cn2c1N(C)CC             %             88.3
 8  Cc1nc(N2CCOCC2)nc(Nc2ccc(Cl)cc2)c1[N+](=O)[O-]             %             87.5
 9  CC1CC(C)CN(C(=O)NCCCCCC(=O)O)C1 (centres unmarked)             %               89
10  CO[C@@H](C(=O)Nc1cnc(-c2ccc(F)cc2)c(-c2ccsc2)n1)c1ccccc1             %             98.4
11  COCc1cc(-c2ccc(C(=O)N3CCN(C)CC3)nc2)ccc1OCC1CCN(C(=O)OC(C)(C)C)CC1             %               84
12  Cc1ccc(S(=O)(=O)Nc2ccc(-c3cn4cccnc4n3)cc2)cc1[N+](=O)[O-]             %             60.5
13  Cn1ncc2c1CCCN(C(=O)COc1ccc(C(C)(C)C)cc1)C2             %              115
14    CCOC(=O)CN1CCN(c2nccnc2OCCN2CCOCC2)CC1             %             93.9
15  O=C(c1ccc2c(c1)C(=O)N(c1ccncc1)C2=O)c1ccc2c(c1)C(=O)N(c1ccncc1)C2=O             %             88.5
16  O=[N+]([O-])c1cc(-c2nc(-c3ccco3)c(-c3ccco3)[nH]2)ccc1Br             %             86.3
17  NS(=O)(=O)c1ccc(CNC(=O)c2cc(-c3cccnc3)nc3ccc(Br)cc23)cc1             %             96.9
18                 CCN(Cc1ccccc1)C(=O)NCCCSC             %             94.3
19  O=C(NCC1CCCO1)[C@H]1CCCC[C@H]1C(=O)O (some centres unmarked)             %             88.7
20  CS(=O)(=O)c1ccc(-c2ccc(OC3CCN(C(=O)CCCc4ccc(F)cc4)CC3)nc2)cc1             %             94.8

###

Test: in vitro
Conditions: human, hela cells, % viability
viability at 28.5 h, 10 µM values, listed per item
property-label: viability at 28.5 h, 10 µM (%)

> print(dat)
                               given.smiles  measured.number
1  Cc1cc(C)nc(N/C(=N\C(=O)Nc2ccccc2)NCc2cccnc2)n1             92.2
2     Cn1ccnc1C1(O)CCN(C(=O)Nc2ccccc2Cl)CC1             89.3
3  O=C(Nc1ccc(N2CCN(Cc3ccccc3F)CC2)cc1)c1cc2ccccc2o1             87.4
4                   NNC(=O)COc1ccc(Cl)cc1Cl             92.6
5        O=C1NCCCC12CCN(Cc1ccc3ncccc3c1)CC2             91.4
6  COc1ccc(CN2CCC[C@H]2c2nc(-c3ccc(OC)nc3)no2)c(O)c1               92

###

Test: in vitro
Settings: human, hela cells, % viability
viability at 28.5 h, 10 µM values, listed per item
property-label: viability at 28.5 h, 10 µM (%)

> print(dat)
                               given.smiles  measured.number
1      Cc1cc(C)nc(NC(=O)OCc2cc(C)nc(C)c2)c1             87.9
2    CCOC(=O)Cc1csc(SCC(=O)N2CCc3ccccc32)n1             88.8
3  Cc1ccc(S(=O)(=O)NC[C@H]2O[C@@H](CC(=O)N3CCOCC3)[C@H](O)[C@@H]2O)cc1             87.5
